Documented Kd across a set of binders
Target: T1, cSNK:BSA conjugate (bovine, head-to-tail cyclized; conjugated to BSA carrier)
T1 construct: also called BSA-cSNK
T1 sequence (P02769 25-607 limits assumed): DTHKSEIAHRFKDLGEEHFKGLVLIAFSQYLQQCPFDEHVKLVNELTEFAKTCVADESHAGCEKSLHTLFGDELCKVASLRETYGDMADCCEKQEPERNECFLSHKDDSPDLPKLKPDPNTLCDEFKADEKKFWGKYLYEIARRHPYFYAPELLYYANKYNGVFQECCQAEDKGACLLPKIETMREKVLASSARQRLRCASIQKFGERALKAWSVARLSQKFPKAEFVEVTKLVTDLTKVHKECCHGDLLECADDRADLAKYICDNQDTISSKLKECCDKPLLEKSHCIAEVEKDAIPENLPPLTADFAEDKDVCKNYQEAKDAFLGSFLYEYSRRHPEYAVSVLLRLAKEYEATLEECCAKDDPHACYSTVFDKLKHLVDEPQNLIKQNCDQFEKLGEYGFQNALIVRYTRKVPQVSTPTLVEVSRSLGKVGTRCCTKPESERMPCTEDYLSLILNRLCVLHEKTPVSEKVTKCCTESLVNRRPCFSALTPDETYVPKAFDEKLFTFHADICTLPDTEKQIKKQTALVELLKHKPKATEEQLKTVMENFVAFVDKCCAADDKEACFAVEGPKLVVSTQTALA
Test: BLI 2:1 fit, site 2 (KD2); 100 nM row

The cases that follow already have their Kd on record.
hu5E3-IgG4 (antibody, V domains shown, human IgG4/kappa; also called humanized 5E3 IgG4) VH: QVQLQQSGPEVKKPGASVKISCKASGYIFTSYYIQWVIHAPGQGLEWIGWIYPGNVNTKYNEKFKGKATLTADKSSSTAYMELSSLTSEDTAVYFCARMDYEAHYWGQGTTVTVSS VL: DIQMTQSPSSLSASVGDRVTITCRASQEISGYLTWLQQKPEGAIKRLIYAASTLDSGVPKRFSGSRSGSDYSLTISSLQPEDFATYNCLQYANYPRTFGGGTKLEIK
3.04 nM
hu5E3-IgG2 (antibody, V domains shown, human IgG2/kappa; also called humanized 5E3 IgG2) VH: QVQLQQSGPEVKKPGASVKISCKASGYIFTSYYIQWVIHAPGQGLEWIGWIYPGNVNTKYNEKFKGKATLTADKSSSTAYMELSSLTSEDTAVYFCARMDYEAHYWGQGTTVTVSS VL: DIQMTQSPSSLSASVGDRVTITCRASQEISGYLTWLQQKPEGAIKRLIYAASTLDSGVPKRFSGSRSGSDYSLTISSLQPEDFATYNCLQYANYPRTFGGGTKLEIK
6.39 nM

Need Kd, item murine monoclonal antibody 5E3 (antibody, V domains shown, mouse antibody of the 5E3 hybridoma; also called murine 5E3; m5E3) VH: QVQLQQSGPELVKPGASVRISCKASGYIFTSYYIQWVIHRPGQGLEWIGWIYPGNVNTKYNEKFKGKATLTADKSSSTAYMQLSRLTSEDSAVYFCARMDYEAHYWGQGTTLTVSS VL: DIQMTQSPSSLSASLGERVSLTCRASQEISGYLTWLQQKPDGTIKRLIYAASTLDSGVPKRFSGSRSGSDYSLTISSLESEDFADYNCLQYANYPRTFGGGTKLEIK
1.59 nM

This collection of values is drawn from patent US20170008955A1.
